Biological target: JAK3 (Homo sapiens, UniProt P52333)
Construct: endogenous in cells
Sequence (P52333 1-1124): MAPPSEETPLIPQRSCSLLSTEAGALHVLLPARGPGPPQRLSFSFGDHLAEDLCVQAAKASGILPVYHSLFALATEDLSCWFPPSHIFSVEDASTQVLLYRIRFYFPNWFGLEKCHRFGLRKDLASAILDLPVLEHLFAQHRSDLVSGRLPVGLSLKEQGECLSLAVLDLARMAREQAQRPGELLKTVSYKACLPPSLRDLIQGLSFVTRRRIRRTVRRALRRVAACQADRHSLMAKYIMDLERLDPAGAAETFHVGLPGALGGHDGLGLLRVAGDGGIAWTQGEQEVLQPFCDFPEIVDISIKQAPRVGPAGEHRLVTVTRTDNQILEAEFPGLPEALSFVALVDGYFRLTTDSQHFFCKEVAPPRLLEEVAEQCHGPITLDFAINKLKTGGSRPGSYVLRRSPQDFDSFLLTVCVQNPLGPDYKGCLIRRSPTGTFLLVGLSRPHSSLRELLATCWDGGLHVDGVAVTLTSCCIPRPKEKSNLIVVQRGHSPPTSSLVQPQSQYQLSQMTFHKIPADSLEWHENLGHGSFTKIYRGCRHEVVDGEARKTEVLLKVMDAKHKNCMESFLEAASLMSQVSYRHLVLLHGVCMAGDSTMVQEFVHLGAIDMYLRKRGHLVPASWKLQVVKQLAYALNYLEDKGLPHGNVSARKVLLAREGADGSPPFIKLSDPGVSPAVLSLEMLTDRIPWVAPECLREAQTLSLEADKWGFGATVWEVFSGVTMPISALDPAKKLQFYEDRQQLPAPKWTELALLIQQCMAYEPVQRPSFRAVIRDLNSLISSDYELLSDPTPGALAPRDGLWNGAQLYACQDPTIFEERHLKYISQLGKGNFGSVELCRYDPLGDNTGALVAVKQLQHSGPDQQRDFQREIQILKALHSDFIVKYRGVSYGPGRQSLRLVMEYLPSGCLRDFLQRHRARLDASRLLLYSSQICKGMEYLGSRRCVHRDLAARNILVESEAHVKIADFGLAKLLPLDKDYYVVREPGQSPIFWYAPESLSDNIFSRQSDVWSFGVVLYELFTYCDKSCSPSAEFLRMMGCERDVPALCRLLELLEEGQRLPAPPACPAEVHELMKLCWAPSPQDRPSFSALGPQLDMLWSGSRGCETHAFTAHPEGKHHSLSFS
Experiment: JAK3 kinobeads assay
Conditions: cell lysate, dot blot with JAK3 specific antibody
Procedure: The compounds of the present invention as described in the previous examples were tested in the ZAP-70 kinobeads assay as described (EP-A 1862802 and WO-A 2007/137867). […] Bound proteins are then eluted and the presence ZAP-70 is detected and quantified using a specific antibody in a dot blot procedure and the Odyssey infrared detection system. […]
pIC50: −log10 of the molar value.

Molecule	pIC50
COc1ccc(Nc2nc(Nc3nonc3C)ncc2Cl)c(NS(C)(=O)=O)c1 [Example 31]	5.00 to 6.00
COc1ccc(Nc2nc(Nc3ccon3)ncc2Cl)c(NS(C)(=O)=O)c1 [Example 3]	≥ 7.00
COc1ccc(Nc2nc(Nc3cc(C(C)C)nn3C)ncc2Cl)c(NS(C)(=O)=O)c1 [Example 11]	6.00 to 7.00
COc1ccc(Nc2nc(Nc3cn(C)nc3C)ncc2F)c(NS(C)(=O)=O)c1 [Example 32]	6.00 to 7.00
CS(=O)(=O)Nc1ccccc1Nc1nc(Nc2cn[nH]c2)ncc1Cl [Example 25]	≥ 7.00
COc1ccc(Nc2nc(Nc3cn[nH]c3)ncc2F)c(NS(C)(=O)=O)c1 [Example 24]	≥ 7.00
CCn1nc(Nc2ncc(Cl)c(Nc3ccccc3NS(C)(=O)=O)n2)cc1C [Example 59]	≥ 7.00
CCn1ccc(Nc2ncc(Cl)c(Nc3ccccc3NS(C)(=O)=O)n2)n1 [Example 42]	≥ 7.00
CCn1cc(Nc2ncc(Cl)c(Nc3ccccc3NS(C)(=O)=O)n2)c(C)n1 [Example 33]	≥ 7.00
CCS(=O)(=O)Nc1ccccc1Nc1nc(Nc2cnn(C)c2)ncc1F [Example 62]	6.00 to 7.00
COCCn1nc(C)cc1Nc1ncc(Cl)c(Nc2ccc(OC)cc2NS(C)(=O)=O)n1 [Example 96]	5.00 to 6.00
Cc1nn(C)cc1Nc1ncc(F)c(Nc2ccccc2NS(C)(=O)=O)n1 [Example 30]	6.00 to 7.00
CS(=O)(=O)Nc1ccccc1Nc1nc(Nc2cn[nH]c2)ncc1F [Example 23]	≥ 7.00
COc1ccc(Nc2nc(Nc3cnn(C)c3)ncc2F)c(NS(C)(=O)=O)c1 [Example 21]	≥ 7.00
Cn1ccc(Nc2ncc(F)c(Nc3ccccc3NS(C)(=O)=O)n2)n1 [Example 1]	6.00 to 7.00
COc1ccc(Nc2nc(Nc3cc(C(C)(C)C)nn3C)ncc2Cl)c(NS(C)(=O)=O)c1 [Example 10]	5.00 to 6.00
CCn1nc(Nc2ncc(Cl)c(Nc3cccc(F)c3NS(C)(=O)=O)n2)cc1C [Example 91]	≥ 7.00
CCn1ncc(Nc2ncc(Cl)c(Nc3ccc(OC)cc3NS(C)(=O)=O)n2)c1C [Example 77]	6.00 to 7.00

Where these numbers come from: patent US20120172384A1
